- assayed target: Protein disulfide-isomerase (Homo sapiens)
- Sequence (P07237 18-508 limits assumed): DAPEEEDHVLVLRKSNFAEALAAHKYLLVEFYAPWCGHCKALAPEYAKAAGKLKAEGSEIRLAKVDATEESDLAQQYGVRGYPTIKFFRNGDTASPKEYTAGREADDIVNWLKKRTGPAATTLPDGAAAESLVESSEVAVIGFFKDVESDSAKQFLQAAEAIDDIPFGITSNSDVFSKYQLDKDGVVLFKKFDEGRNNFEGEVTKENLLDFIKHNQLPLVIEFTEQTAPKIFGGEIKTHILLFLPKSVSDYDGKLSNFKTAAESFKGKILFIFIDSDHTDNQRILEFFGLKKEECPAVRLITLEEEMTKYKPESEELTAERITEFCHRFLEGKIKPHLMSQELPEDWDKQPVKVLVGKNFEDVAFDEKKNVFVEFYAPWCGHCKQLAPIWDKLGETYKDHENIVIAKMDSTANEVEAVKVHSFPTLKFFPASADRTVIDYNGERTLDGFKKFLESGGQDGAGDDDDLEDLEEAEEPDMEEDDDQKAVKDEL
- experiment notes: Inhibition of recombinant human N-terminal His-tagged PDI expressed in Escherichia coli BL21 (DE3) pLysS assessed as reduction in enzyme-mediated bovine insulin aggregation at 40 uM measured after 1 hr in presence of 5 mM NAC
Active and inactive are the calls of the source. The calls are words filed in the database; no cut-off is given here.
Use one of these outcomes when replying: active, inactive

Req: How did this test come out for O=C(/C=C/c1ccc(-c2cccnc2)cc1)c1cccc(O)c1 ?
Resp: active

Req: Next compound: CCCCCN(CCCCC)S(=O)(=O)c1ccc(C(=O)/C=C/c2cccc(O)c2)cc1
Resp: inactive

Req: Another compound to look at: C#CC(=O)N(c1ccc(OC)cc1OC)C(C(=O)NCC(=O)OCC)c1cccs1 (stereo not given)
Resp: inactive

Req: Next up: COC(=O)c1cccc(/C=C/C(=O)c2cccc(O)c2)c1
Resp: inactive

Req: And for N#Cc1cccc(/C=C/C(=O)c2ccc(O)cc2)c1 ?
Resp: active
